- Tested on: NCI-H226 lung
- runDescription: NCI tumour cell line growth inhibition, 48 h
propertyLabel: TGI

Would you please look over these solved cases?
O=C(NCc1ccco1)C1CCN(S(=O)(=O)c2ccc(Cl)cc2)CC1 ... > 100 µM
O=[N+]([O-])c1cccc(-c2cn3c(n2)Cc2ccccc2C3)c1 ... > 100 µM
COc1ccc(/C=C2\Sc3nnc(-c4ccccc4)n3N=C2c2cc(F)c(Cl)cc2Cl)cc1OC ... > 100 µM
O=[N+]([O-])C(C(Cl)=C(Cl)Cl)=C(n1nnc2ccccc21)n1nnc2ccccc21 ... > 73.9 µM
CN(c1ccccc1)c1nc(=[N+]2CCCC2)ss1 ... > 100 µM

// TGI lookup, molecule = Cc1ccc2c(=O)c(-c3nnc(NC4CCCCC4)s3)c[nH]c2n1 , result: > 100 µM

* * *

- Tested on: M19-MEL melanoma
- runDescription: NCI tumour cell line growth inhibition, 48 h
propertyLabel: TGI

// TGI lookup, molecule = O=C1NC2(CCCCC2)C2CCCCC=C12 (stereo not given) , result: > 100 µM

// TGI lookup, molecule = Cc1ccc(C2[C@H]3C(=O)N(c4ccc(Cc5ccc(N6C(=O)[C@@H]7ON(c8ccccc8)C(c8ccc(C)cc8)[C@@H]7C6=O)cc5)cc4)C(=O)[C@H]3ON2c2ccccc2)cc1 (stereo not given in full) , result: > 100 µM

// TGI lookup, molecule = O=[N+]([O-])c1cccc(S(=O)(=O)N/N=C/c2cc(I)cc([N+](=O)[O-])c2O)c1 , result: > 100 µM

// TGI lookup, molecule = CCCCCCCCCCCCCCCCCCOCC(C[N+]1(C)CCC(O)CC1)OCC (stereo not given) , result: 14.4 µM

// TGI lookup, molecule = O=C(COC(=O)c1cccc2c(=O)c3ccccc3[nH]c12)Nc1ccc(Cl)cc1 , result: > 100 µM

* * *

- Tested on: OVCAR-5 ovarian
- runDescription: NCI tumour cell line growth inhibition, 48 h
# TGI listing for each entry below

// TGI lookup, molecule = COc1cc(NCCC(=O)O)c2ncccc2c1 , result: > 100 µM

// TGI lookup, molecule = COc1ccc(/C=C2\Sc3nnc(-c4ccccc4)n3N=C2c2cc(F)c(Cl)cc2Cl)cc1OC , result: > 100 µM

// TGI lookup, molecule = O=C(O)/C(Cl)=C(Cl)/C=N/NC(=O)c1cc2ccccc2cc1O , result: 61.5 µM

// TGI lookup, molecule = c1ccc(C2=NN=C3C(c4ccccc4)=Nc4ccccc4N3C2)cc1 , result: > 94.3 µM

// TGI lookup, molecule = Cc1ccc2c(=O)c(-c3nnc(NC4CCCCC4)s3)c[nH]c2n1 , result: > 100 µM

* * *

# TGI listing for each entry below
- Test system: U251 CNS
- runDescription: NCI tumour cell line growth inhibition, 48 h

Would you please look over these solved cases?
CC(=O)[CH-]C(=O)c1ccccc1.CC(=O)[CH-]C(=O)c1ccccc1.CC[C@H](/C=C/C(C)[C@H]1CCC2[C@@H]3CC=C4C[C@@H]([O-])CC[C@]4(C)C3CC[C@@]21C)C(C)C.CC[C@H](/C=C/C(C)[C@H]1CCC2[C@@H]3CC=C4C[C@@H]([O-])CC[C@]4(C)C3CC[C@@]21C)C(C)C.Cl.[Ti+4] (some centres undefined) ... > 25 µM
COc1c(-c2ccc3c(c2)OCO3)oc2cc(O)cc(O)c2c1=O ... > 100 µM
NNC(=O)CCc1ccc2ccc3ccccc3c2c1 ... > 100 µM

Bench note, U251 CNS: entry O=C1N/C(=N\N=C\c2ccccc2)C2(CCCCC2)O1 , its TGI = > 100 µM

Bench note, U251 CNS: entry O=C1C(c2c(O)[nH]c3ccc(Cl)cc23)=Nc2ccccc21 , its TGI = 17.6 µM

Bench note, U251 CNS: entry CC(=O)O[C@H]1CC[C@H]2[C@@H]3CCC4=C/C(=N/OCCN(C)C)CC[C@]4(C)[C@H]3CC[C@]12C , its TGI = 26.4 µM

Bench note, U251 CNS: entry CC(C)(C)n1c(=O)n(-c2ccccc2)n(C(C)(C)C)c1=O , its TGI = > 100 µM

Bench note, U251 CNS: entry O=[N+]([O-])c1ccc(C2SCc3nc4ccccc4n32)cc1 (centres undefined) , its TGI = > 100 µM

Bench note, U251 CNS: entry CC(C)(O)CCc1cccc(C(=O)c2cnn(-c3ccc(F)cc3)c2N)c1 , its TGI = > 25 µM

Bench note, U251 CNS: entry COC(=O)[C@@H](NC(=O)[C@H](N)Cc1ccc(N(CCCl)CCCl)cc1)C(C)C , its TGI = > 100 µM

Bench note, U251 CNS: entry CC1=CC(C)(C)Nc2ccc(Cc3ccc4c(c3)C(C)=CC(C)(C)N4)cc21 , its TGI = > 100 µM

Bench note, U251 CNS: entry CO/C=C1\OC(=O)C=C1OC , its TGI = > 31.6 µM

Bench note, U251 CNS: entry Clc1ccc(C(Cc2ccccc2)c2c(Cl)nc(N3CCNCC3)nc2Cl)cc1 (centres undefined) , its TGI = 26.9 µM

Bench note, U251 CNS: entry Cc1ccc(C2[C@H]3C(=O)N(c4ccc(Cc5ccc(N6C(=O)[C@@H]7ON(c8ccccc8)C(c8ccc(C)cc8)[C@@H]7C6=O)cc5)cc4)C(=O)[C@H]3ON2c2ccccc2)cc1 (some centres undefined) , its TGI = > 100 µM

Bench note, U251 CNS: entry Cc1ccc(N=Nc2c(O)ccc3n[nH]nc23)cc1 , its TGI = > 100 µM

Bench note, U251 CNS: entry N#Cc1c(N)nc(SCc2ccccc2)c(C#N)c1-c1ccc(O)cc1 , its TGI = 30.5 µM

Bench note, U251 CNS: entry Nc1ccc(Cn2ccc3c4c(N)nc(N)nc4ccc32)cc1 , its TGI = 5.02 µM

Bench note, U251 CNS: entry CSC1(C(=O)O)C2CCC3C2CCC31 (centres undefined) , its TGI = > 100 µM

Bench note, U251 CNS: entry O=c1oc2ccccc2c(O)c1C(c1cccc(C(c2c(O)c3ccccc3oc2=O)c2c(O)c3ccccc3oc2=O)c1)c1c(O)c2ccccc2oc1=O , its TGI = > 100 µM

Bench note, U251 CNS: entry CC1CC(=NC2CCCCC2)Nc2ccccc2N1Cc1ccccc1 (centres undefined) , its TGI = 19.9 µM

* * *

- Tested on: EKVX NSCLC
- runDescription: NCI tumour cell line growth inhibition, 48 h
propertyLabel: TGI

Would you please look over these solved cases?
Cc1ccc(Nc2nc(=O)c3c([nH]c4ccccc43)s2)cc1 ... 64.2 µM
O=c1[nH]nc(-c2ccccc2)n1-c1cccc([N+](=O)[O-])c1 ... > 100 µM
N#Cc1c(N)nc(SCc2ccccc2)c(C#N)c1-c1ccc(O)cc1 ... 26.3 µM
CCOC(=O)N/N=C(\CC)NO ... > 100 µM
Cc1nn(Cc2ccccc2)cc1C(=O)Nc1sc2c(c1C(N)=O)CCC(=O)C2 ... 21.7 µM

// TGI lookup, molecule = COc1cccc2c(SCC(=O)Nc3ccccc3-c3ccccc3NC(=O)CSc3c4ccccc4nc4c(OC)cccc34)c3ccccc3nc12 , result: 95 µM

// TGI lookup, molecule = O=C1N/C(=N\N=C\c2ccccc2)C2(CCCCC2)O1 , result: > 100 µM

// TGI lookup, molecule = Cc1ccc2c(c1)C=CC1(O2)N(c2ccccc2)C(=S)OC1(C)C (stereo not given) , result: > 100 µM

// TGI lookup, molecule = CC(=O)NC1CC(C(C)(C)NC(C)=O)CC=C1C (stereo not given) , result: > 100 µM

// TGI lookup, molecule = CC(C)(C)[Si](C)(C)OCCc1ccccc1C1CC2(S(=O)(=O)c3ccccc3)ON1CC2S(=O)(=O)c1ccccc1 (stereo not given) , result: > 100 µM

* * *

- System: DU-145 prostate
- runDescription: NCI tumour cell line growth inhibition, 48 h
# GI50 listing for each entry below

[Cl][Hg][c]1ccc2ccccc2c1 ... 4.97 µM
CCn1cc(C(=O)N/N=C/c2cccs2)c(=O)c2cc(F)c(N3CCNC(C)C3)c(F)c21 (centres undefined) ... 1.67 µM
C[C@@]1(C(=O)O)CCC[C@]2(C)C1CC[C@]13C[C@@](O)(CO)[C@](O)(CC[C@]12O)C3 (some centres undefined) ... > 100 µM

Next compound, please.
Bench note, DU-145 prostate: entry COc1ccc(/C=C2\COc3ccc(O)c(O)c3C2=O)cc1OC , its GI50 = 2.22 µM

* * *

# TGI listing for each entry below
- Tested on: PC-3 prostate
- runDescription: NCI tumour cell line growth inhibition, 48 h

CNC(=O)CCCNC(=O)CCCCC(=O)N(C)C ... > 100 µM
Cc1cc2c3c([n+](C)c4ccc(F)cc4c3c1)-c1cc(F)ccc1N2C ... 77.7 µM
C[C@H](c1ccccc1)n1c(N)c(-c2nc3ccccc3s2)c2ccc([N+](=O)[O-])cc2c1=O ... > 65.7 µM

// TGI lookup, compound = O=C(/C=C/c1ccccc1)c1cc(C(=O)/C=C/c2ccccc2)c(O)cc1O , result: > 100 µM

// TGI lookup, compound = COc1ccc(C[C@@H](C(=O)O[C@H](C)[C@H](NC(=O)[C@@H](CC(C)C)N(C)C(=O)C2CCCN2C(=O)[C@H](C)O)C(=O)N2CCCCNC(=O)[C@@H](C)C(=O)[C@H](C(C)C)OC(=O)C[C@H](O)[C@H]2CC(C)C)N(C)C(C)=O)cc1 (stereo partly specified) , result: > 50 µM

// TGI lookup, compound = COc1cccc(N2CCN(c3ncnc4cc[nH]c34)CC2)c1 , result: > 100 µM

// TGI lookup, compound = COC(=O)c1sc2c(c1C(=O)OC)C(=NC(C)(C)C)SC2=NC(C)(C)C , result: 37 µM

// TGI lookup, compound = O=C1C(Cl)=C(Cl)C(=O)N1c1ccc(F)cc1 , result: 29.8 µM

// TGI lookup, compound = Cc1nn(Cc2ccccc2)cc1C(=O)Nc1sc2c(c1C(N)=O)CCC(=O)C2 , result: 5.14 µM

// TGI lookup, compound = NNC(=O)c1cc([N+](=O)[O-])ccc1NC(=O)C12CC3CC(CC(C3)C1)C2 , result: > 100 µM

// TGI lookup, compound = c1cc(C2CCCCC2)ccc1-c1cnc2nonc2n1 , result: 2.56 µM
